Reference source for all entries: patent US8314132B2

GI50 values recorded for HeLa (cervical carcinoma) cells
endpoint: GI50 (µM)

{"compound": "Cc1ccc(-c2snnc2-c2cc(Cl)c(O)cc2O)cc1 [compound 3c]", "value-observed": 3.3}
{"compound": "COc1ccc(-c2snnc2-c2cc(Cl)c(O)cc2O)cc1 [compound 3a]", "value-observed": 2.5}
{"compound": "COc1ccc(-c2snnc2-c2cc(Cl)c(O)cc2O)cc1OC [compound 3d]", "value-observed": 3.6}
{"compound": "CCOc1ccc(-c2snnc2-c2cc(CC)c(O)cc2O)cc1 [compound 3e]", "value-observed": 0.7}
{"compound": "CCOc1ccc(-c2snnc2-c2cc(Cl)c(O)cc2O)cc1 [compound 3b]", "value-observed": 4.2}
